All figures here come from ChEMBL document CHEMBL1133979.

Test: Oral bioavailability in dog
Assay type: ADME, organism-based, Canis lupus familiaris
Conditions: in vivo, read-out: Bioavailabiility
reported_property: bioavailability (%)
Express it in %; write the number only.

Inquiry: Given the molecule O=C(O)C[C@H](NC(=O)[C@@H]1CCCN(C(=O)CCC2CCNCC2)C1)c1cccnc1 [ELAROFIBAN] , what is its reported bioavailability?
Reply text: 16
